- System: Escherichia coli TOP10;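 further: peptides expressed intracellularly from a pBAD plasmid library in pooled LB shake-flask culture, induced with 0.3% L-arabinose, DNA abundance read by NGS, three biological replicates, DESeq2 with apeglm shrinkage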
- assay-info: shrunken log2 fold change of peptide-encoding DNA abundance (4.5 h post-induction vs induction); higher = less antimicrobial activity (less host growth inhibition)
- test-conditions: time post-induction: 4.5 h; library: site-saturation at positions 5, 18, 19, 20
shrunken log2 fold change listing for selected sequences.
Give the figure only, with no unit attached.

Previously resolved entries follow.
- seq-text: "RRIRWRPPRLPRPRPRPWSFPRP"
  shrunken log2 fold change: -0.0355
- seq-text: "RRIRWRPPRLPRPRPRPLCKPRP"
  shrunken log2 fold change: 0.116

The reported shrunken log2 fold change of the sequence `RRIRVRPPRLPRPRPRPRKPPRP` was 0.0947

response.value for `RRIRVRPPRLPRPRPRPVEAPRP` (field: shrunken log2 fold change) = 0.0669

The sequence listed as `RRIRERPPRLPRPRPRPCDAPRP` has a reported shrunken log2 fold change of -0.171
